Attribution: patent US20220000964A1

- Test system: Sprague Dawley rats
- Protocol notes: Hot plate test, topical application, paw withdrawal latency
- Format: in vivo, rat
- Condition info: vs vehicle V1; negative = increased paw withdrawal latency; dose (%): Ibuprofen 5, Capsaicin 0.5, Diclofenac 1, others 5
Attribute: % Change
Supply the numeric figure in %, leaving out any unit text.

Observe how each entry below is paired with its result.
CC(C)Cc1ccc(C(C)C(=O)O)cc1 (stereo not shown) = −22.4
CC1CCC(C(C)C)C(O)C1 (stereo not shown) = 15.1
O=C(O)Cc1ccccc1Nc1c(Cl)cccc1Cl = 2.8

# evaluate next
Suppose we examine the compound COc1cc(CNC(=O)CCCC/C=C/C(C)C)ccc1O ; what % Change value has been reported?
36.7

====

- Tested on: Sprague Dawley rats
- Protocol notes: Hot plate test, topical application, paw withdrawal latency
- Assay type: in vivo, rat
- Condition info: hot plate 53° C., topical; vehicle V1 (DMSO+PG+Aloe 2%); dose (%): Ibuprofen 5, Capsaicin 0.5, Diclofenac 1, others 5; in s (unit assumed)
Measured metric: Paw withdrawal threshold (latency) Mean ± SD
Give the figure only, with no unit attached.

Before answering, review these 3 worked examples.
CC1CCC(C(C)C)C(O)C1 (stereo not shown) [Menthol] = 6.05
O=C(O)Cc1ccccc1Nc1c(Cl)cccc1Cl [Diclofenac] = 6.93
CC(C)Cc1ccc(C(C)C(=O)O)cc1 (stereo not shown) [Ibuprofen] = 8.73

Lab note: next molecule to report on.
Look at this molecule and give its reported Paw withdrawal threshold (latency) Mean ± SD. COc1cc(CNC(=O)CCCC/C=C/C(C)C)ccc1O [Capsaicin]
4.51
